Answer each item with its documented PBM binding z-score.
system: PPARg:RXRa (NR concentration 180 nM, RXRa partner concentration 90 nM); experiment: PBM binding z-score (relative to random genomic background probes); higher = stronger binding; sequences stand for … in GC…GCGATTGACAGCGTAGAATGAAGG
Just the number, please, no unit attached.

Form field: reported PBM binding z-score of "TCTTATAGATCAAAGGTTAAGAAAGCCGAAGCCT"
7.79

Form field: reported PBM binding z-score of "GCGACTGGGGCAAAGCCGGTTACCATAAGGTTGG"
0.627

Form field: reported PBM binding z-score of "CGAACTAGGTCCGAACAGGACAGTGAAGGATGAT"
0.576

Form field: reported PBM binding z-score of "CCGACTGAGGCAAAGGTTACCATACTCAGTACGA"
6.77

Form field: reported PBM binding z-score of "TTACCAAGGTGAGCTGAGCTCGTTGATCCAACTC"
-0.393

Form field: reported PBM binding z-score of "ATGTCTAGGTAAAGTTCAGTGAAAGATCGATAGA"
3.51

Form field: reported PBM binding z-score of "GCTTACGAGTCAAAGGTTATAGCATGAATAGAAT"
5.72

Form field: reported PBM binding z-score of "AGTCAAAGTTCAGGACGAAGTAACGTAAAGCACG"
4.78

Form field: reported PBM binding z-score of "ACTATTAGTTGAGTCGAGGGCAACCGATAGGTTG"
0.466

Form field: reported PBM binding z-score of "TTACCAAGGTGAAAGGACGTTGATGCACGCCTTG"
2.29

Form field: reported PBM binding z-score of "CCTACCAGGCCAGGGTCACTCAAGCATTTCGCTT"
0.899

Form field: reported PBM binding z-score of "ATCGAAAGGTCGAGGTGAGTTTAGAGAAAGGGAA"
3.03

Form field: reported PBM binding z-score of "GCTGCTAGGTTAGGTTGGTCAGCTAACGGGTACG"
-0.306

Form field: reported PBM binding z-score of "TAGCCTAGGTCATTCAGGAGCCAGTATAGAAAGC"
1.84

Form field: reported PBM binding z-score of "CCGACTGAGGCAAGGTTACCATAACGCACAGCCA"
0.898

###

Answer each item with its documented PBM binding z-score.
system: PPARg homodimer (NR concentration 180 nM); test: PBM binding z-score (relative to random genomic background probes); higher = stronger binding; sequences stand for … in GC…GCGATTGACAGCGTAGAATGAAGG

Form field: reported PBM binding z-score of "CCGACTGGGGCATAAGGTTCCCATAAGCCAGCCC"
-0.0208

Form field: reported PBM binding z-score of "ACAGACAGTTGAGTGAAGGTAACTCAGCTGGACG"
-0.3

Form field: reported PBM binding z-score of "TCTGCTAGGTCAGTTTGTCAGCTAACGAGCTGCC"
-0.156

Form field: reported PBM binding z-score of "CCGACCGGGGCAAAGGTTACCATACTCAGTACGA"
1.59

Form field: reported PBM binding z-score of "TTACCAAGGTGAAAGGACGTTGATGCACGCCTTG"
0.691

Form field: reported PBM binding z-score of "CGAACTGGGTCAGAACAGGACAGTGAAGGATGAT"
0.887

Form field: reported PBM binding z-score of "ATCTCTAGGTACAGTTCAGTGAAAGATCGATAGA"
0.523

Form field: reported PBM binding z-score of "CTCGAAAGGTCGGTTGAAGTGAGTATACGGATAA"
0.716

Form field: reported PBM binding z-score of "CCTTACGGGGCAAGGTTATAGCACGGGTGGTACG"
0.309

Form field: reported PBM binding z-score of "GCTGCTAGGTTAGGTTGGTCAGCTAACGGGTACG"
-0.465

###

Answer each item with its documented PBM binding z-score.
system: PPARg:RXRa 30nM:10nM, anti-RXR (NR concentration 30 nM, RXRa partner concentration 10 nM); test: PBM binding z-score (relative to random genomic background probes); higher = stronger binding; sequences stand for … in GC…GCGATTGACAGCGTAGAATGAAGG
Just the number, please, no unit attached.

Form field: reported PBM binding z-score of "TCTTGTAGATCAAGCCGGTTAAGAAAGCCTGAGT"
2.88

Form field: reported PBM binding z-score of "CCGACTGGGGCATAAAGTTACCATAAGCCAGCCC"
-0.215

Form field: reported PBM binding z-score of "CCGAGTGGGGCAGAAAGGTTACCATACCATCCGG"
0.657

Form field: reported PBM binding z-score of "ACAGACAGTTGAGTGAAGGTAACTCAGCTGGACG"
-0.0499

Form field: reported PBM binding z-score of "TCTTCTAGATCAATAGAGGTTAAGAAAGTGCGCT"
3.32

Form field: reported PBM binding z-score of "CCGTACGGGTCACGAGGTTATAGCACGACGAGCG"
2.37

Form field: reported PBM binding z-score of "CCGACTGGGTCATAAGGTTACCATAAGCCAGCCC"
2.95

Form field: reported PBM binding z-score of "GCGACTGGGGCATCAGCAGGTTACCATTACTTAA"
-0.277

Form field: reported PBM binding z-score of "ATACCAAGGTGATCGTGAAGTCGTTGATACTAAC"
-0.0865

Form field: reported PBM binding z-score of "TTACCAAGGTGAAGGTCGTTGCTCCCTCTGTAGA"
2.21

Form field: reported PBM binding z-score of "ATATGTAGGTTACATCCGGGTCGTTCAGGCTATG"
1.66

Form field: reported PBM binding z-score of "AGAATGAGGTTAAGATCAGTGAAACAGAATACAT"
1.23

Form field: reported PBM binding z-score of "GCTAGCAGGCCATTTGGGACACTCAATGACGGGC"
-0.719

Form field: reported PBM binding z-score of "CCTACTGGGCCATTCATAGGTCATTGATCATATG"
0.277

###

Answer each item with its documented PBM binding z-score.
test system: LXRa:RXRa (NR concentration 270 nM, RXRa partner concentration 90 nM); assay: PBM binding z-score (relative to random genomic background probes); higher = stronger binding; sequences stand for … in GC…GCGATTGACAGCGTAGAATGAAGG
Just the number, please, no unit attached.

Form field: reported PBM binding z-score of "GCGACTGGGGCAAAGCAGGTTACCACAAGGTTGG"
-0.0445

Form field: reported PBM binding z-score of "CAAACTAGGTCACCGGAAGGTCAACGTCCGCATG"
6.05

Form field: reported PBM binding z-score of "GATACAGGGTCAACGCCAGAGTACGCGTATTGAT"
4.57

Form field: reported PBM binding z-score of "TTACCAAGTTGAAGGTCGTTGATCCCTCTGTAGA"
2.28

Form field: reported PBM binding z-score of "CCCACTGGGCCAAGGTCATTGATCAGTCAAAGCA"
2.95

Form field: reported PBM binding z-score of "TCATATAGGTGAATGCTAGGTGAAAGTCCGATCT"
0.917

Form field: reported PBM binding z-score of "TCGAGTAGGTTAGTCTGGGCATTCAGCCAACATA"
-0.131

Form field: reported PBM binding z-score of "AAATGTAGGTTATCGGGTCATTCAGTTTGCGCAT"
3.09

###

test system: THRa:RXRa (NR concentration 90 nM, RXRa partner concentration 90 nM); experiment: PBM binding z-score (relative to random genomic background probes); higher = stronger binding; sequences stand for … in GC…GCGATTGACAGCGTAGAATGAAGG
REPORTED METRIC: PBM binding z-score

Form field: reported PBM binding z-score of "TAGCCTAGGTCATGCTGGCCAGTATAGTGTCGGC"
3.03

Form field: reported PBM binding z-score of "GATACAGGGTCAAGGCCAGACTACGCGTATTGAT"
3.8

Form field: reported PBM binding z-score of "TCTAGCAGGCCACAGGGTCACTCAAGAGGTACGG"
2.94

Form field: reported PBM binding z-score of "ACAGACAGGTGATGAAGGTAACTCATGCTATCAT"
0.149

Form field: reported PBM binding z-score of "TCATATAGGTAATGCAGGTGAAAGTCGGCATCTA"
1.1

Form field: reported PBM binding z-score of "TCTAGCAGGCCAGAGGGTCATTCAAGAGGTACGG"
1.83

Form field: reported PBM binding z-score of "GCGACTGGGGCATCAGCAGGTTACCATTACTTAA"
0.833

Form field: reported PBM binding z-score of "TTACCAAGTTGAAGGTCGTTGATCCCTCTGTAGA"
1.26

Form field: reported PBM binding z-score of "CTCGTAAGGTCGTGCTCAGGTGAGTATACCAAAC"
4.18

Form field: reported PBM binding z-score of "GCGACAGGGGCATCAGCAGGTTACCATAACTTAA"
1.61

Form field: reported PBM binding z-score of "ATAGGTAGGTTAGCTGGGGTCATTCAGACTAGGC"
5.2

Form field: reported PBM binding z-score of "TCTTGTAGATCAAGCAGGTTAAGAAAGCCTGAGT"
0.331

Form field: reported PBM binding z-score of "CCTCGCAGGCCAATCTGGGTCACTCAAGGCTTGA"
3.93

Form field: reported PBM binding z-score of "CGAACTAGGTCATCCAGGACAATGAATACATTGA"
3.81

Form field: reported PBM binding z-score of "ATCTCTAGGTGAAGATAGTTCAGTGAATGCAAAT"
1.24

Form field: reported PBM binding z-score of "GGAACGAGGGCAAGTTGATAGAAGAGTTTGATGG"
1.2

Form field: reported PBM binding z-score of "TCATATAGGTAAACAGGTGAGAGTCCGTAAGTTA"
0.521

Form field: reported PBM binding z-score of "CCAGACAGGTGAGAAGGTAACTGAGCCTCGATTA"
0.121
